MEASUREMENT CONTEXT: human
PARAMETER: Hepatotoxicity (cytolytic)
Lab note: write the figure by itself, no unit.

Worked examples follow.
| MOLECULE | VALUE MEASURED |
| --- | --- |
| O=C(O)Cn1c(=O)n(Cc2ccc(Br)cc2F)c(=O)c2ccc(Cl)cc21 [ZENARESTAT] | 0 |
| CC(O)(P(=O)(O)O)P(=O)(O)O [ETIDRONIC ACID] | 0 |

Fill blank: measured Hepatotoxicity (cytolytic) of the molecule CCC(C)n1ncn(-c2ccc(N3CCN(c4ccc(OC[C@H]5CO[C@](Cn6cncn6)(c6ccc(F)cc6F)O5)cc4)CC3)cc2)c1=O (stereo partly drawn) [SAPERCONAZOLE] is ____.
0

Fill blank: measured Hepatotoxicity (cytolytic) of the molecule CN(C)CC[C@@H](c1ccc(Cl)cc1)c1ccccn1 [DEXCHLORPHENIRAMINE] is ____.
1

Fill blank: measured Hepatotoxicity (cytolytic) of the molecule O=C1CN(/N=C/c2ccc([N+](=O)[O-])o2)C(=O)N1CO [NIFURTOINOL] is ____.
0

Fill blank: measured Hepatotoxicity (cytolytic) of the molecule C[C@H](CS)C(=O)N1CCC[C@H]1C(=O)O [CAPTOPRIL] is ____.
7

Fill blank: measured Hepatotoxicity (cytolytic) of the molecule COc1c2occc2cc2ccc(=O)oc12 [METHOXSALEN] is ____.
3

Fill blank: measured Hepatotoxicity (cytolytic) of the molecule CC1=C(C(=O)O)N2C(=O)[C@@H](NC(=O)[C@H](N)C3=CCC=CC3)[C@H]2SC1 [CEPHRADINE] is ____.
0

Fill blank: measured Hepatotoxicity (cytolytic) of the molecule NCCCNc1ccc2c3c(nn2CCNCCO)-c2c(O)ccc(O)c2C(=O)c13 [PIROXANTRONE] is ____.
0

Fill blank: measured Hepatotoxicity (cytolytic) of the molecule COc1ccc(CCN(C)CCCC(C#N)(c2cc(OC)c(OC)c(OC)c2)C(C)C)cc1OC (stereo not drawn) [GALLOPAMIL] is ____.
0

Fill blank: measured Hepatotoxicity (cytolytic) of the molecule NC1=NC(=O)C(c2ccccc2)O1 (stereo not drawn) [PEMOLINE] is ____.
14

Fill blank: measured Hepatotoxicity (cytolytic) of the molecule CN(C)S(=O)(=O)c1ccc2c(c1)N(CCCN1CCC(CCO)CC1)c1ccccc1S2 [PIPOTIAZINE] is ____.
0

Fill blank: measured Hepatotoxicity (cytolytic) of the molecule CN1[C@@H]2CC[C@H]1C[C@@H](OC(=O)c1c[nH]c3ccccc13)C2 [TROPISETRON] is ____.
1

Fill blank: measured Hepatotoxicity (cytolytic) of the molecule CN1CCC(=C2c3ccccc3C=Cc3ccccc32)CC1 [CYPROHEPTADINE] is ____.
3

Fill blank: measured Hepatotoxicity (cytolytic) of the molecule "C[Si](C)(C)c1cccc(C(=O)C(F)(F)F)c1" is ____.
0

Fill blank: measured Hepatotoxicity (cytolytic) of the molecule CS(=O)(=O)c1ccc([C@@H](O)[C@@H](CO)NC(=O)C(Cl)Cl)cc1 [THIAMPHENICOL] is ____.
0

Fill blank: measured Hepatotoxicity (cytolytic) of the molecule CC(C)[C@H](N)C(=O)OCCOCn1cnc2c(=O)[nH]c(N)nc21 [VALACYCLOVIR] is ____.
1

Fill blank: measured Hepatotoxicity (cytolytic) of the molecule "CC1(C)S[C@@H]2[C@H](NC(=O)[C@H](C(=O)O)c3ccsc3)C(=O)N2[C@H]1C(=O)O.O=C(O)[C@H]1/C(=C/CO)O[C@@H]2CC(=O)N21" is ____.
0

---

MEASUREMENT CONTEXT: human
PARAMETER: Hepatotoxicity (cirrhosis)
Lab note: write the figure by itself, no unit.

| COMPOUND STRUCTURE STRING | Hepatotoxicity (cirrhosis) |
| --- | --- |
| O=C(O)CCCc1ccc(N(CCCl)CCCl)cc1 | 1 |
| CCC(=O)O[C@@H]1CC(=O)O[C@H](C)C/C=C/C=C/[C@H](O)[C@H](C)C[C@H](CC=O)[C@H](O[C@@H]2O[C@H](C)[C@@H](O[C@H]3C[C@@](C)(O)[C@@H](OC(=O)CC)[C@H](C)O3)[C@H](N(C)C)[C@H]2O)[C@H]1OC | 0 |

Lab note: next molecule to report on.
Fill blank: measured Hepatotoxicity (cirrhosis) of the molecule "CCn1cc(C(=O)O)c(=O)c2cc(F)c(N3CCNCC3)cc21" is ____.
0

---

MEASUREMENT CONTEXT: human, serum, 4383 h
*1 amine or outer side, *2 acyl side, *3 side chain or, on linkers, in order; H or OH if unused. Where a SMILES comes first, the peptide text is derived from it. Bridges are numbered along the chain shown (N, C = ends). Roman numbers before positions name the chains, in order. [ ]: non-standard residue; d: D form. Actinocin(9to1) = Cc1c2oc3c(C)ccc(C(=O)[*:1])c3nc-2c(C(=O)[*:2])c(N)c1=O; NMeV = CN[C@H](C(=O)O)C(C)C; Sar = CNCC(=O)O
PARAMETER: Hepatotoxicity (chronic liver disease)

| COMPOUND | Hepatotoxicity (chronic liver disease) |
| --- | --- |
| COc1cc(NC(C)CCCN)c2ncccc2c1 (stereo not drawn) | 0 |
| CC(=O)[C@]1(O)Cc2c(O)c3c(c(O)c2[C@@H](O[C@H]2C[C@H](N)[C@H](O)[C@H](C)O2)C1)C(=O)c1ccccc1C3=O | 0 |
| Cn1c(=O)c2[nH]cnc2n(C)c1=O.O | 0 |
| O=C(O)c1cccs1 | 0 |
| C1CNCCN1 | 0 |

Fill blank: measured Hepatotoxicity (chronic liver disease) of the compound "CCN(CC)CCn1c(-c2ccccc2)noc1=N" is ____.
1

Fill blank: measured Hepatotoxicity (chronic liver disease) of the compound Cc1c2oc3c(C)ccc(C(=O)N[C@@H]4C(=O)N[C@H](C(C)C)C(=O)N5CCC[C@H]5C(=O)N(C)CC(=O)N(C)[C@@H](C(C)C)C(=O)O[C@@H]4C)c3nc-2c(C(=O)N[C@@H]2C(=O)N[C@H](C(C)C)C(=O)N3CCC[C@H]3C(=O)N(C)CC(=O)N(C)[C@@H](C(C)C)C(=O)O[C@@H]2C)c(N)c1=O [DACTINOMYCIN] (I: T[dV]P[Sar][NMeV] / II: T[dV]P[Sar][NMeV]; ester I:1-I:C, II:1-II:C; linker I:N-II:N via Actinocin(9to1)) is ____.
1

Fill blank: measured Hepatotoxicity (chronic liver disease) of the compound "CC(=O)CCCCn1c(=O)c2c(ncn2C)n(C)c1=O" is ____.
0

---

MEASUREMENT CONTEXT: human
PARAMETER: Hepatotoxicity (choleostasis)

Worked examples follow.
| MOLECULE | VALUE MEASURED |
| --- | --- |
| NCC(CC(=O)O)c1ccc(Cl)cc1 (stereo not given) | 1 |
| Cc1cc(C(=O)NCCc2ccc(S(=O)(=O)NC(=O)NN3CCCCCC3)cc2)no1 [GLISOXEPIDE] | 0 |
| CC(C)[C@H](N)C(=O)OCCOCn1cnc2c(=O)[nH]c(N)nc21 | 1 |

Fill blank: measured Hepatotoxicity (choleostasis) of the molecule "CN[C@@H]1[C@@H](O)[C@@H](O[C@@H]2[C@@H](O)[C@H](O[C@H]3O[C@H](CN)[C@@H](O)[C@H](O)[C@H]3O)[C@@H](N)C[C@H]2NC(=O)[C@@H](O)CN)OC[C@]1(C)O" is ____.
0

Fill blank: measured Hepatotoxicity (choleostasis) of the molecule CC(c1cc2ccccc2s1)N(O)C(N)=O (stereo not given) is ____.
0

---

List of Hepatotoxicity (steatosis) values.
MEASUREMENT CONTEXT: human
Lab note: write the figure by itself, no unit.

Worked examples follow.
| MOLECULE | Hepatotoxicity (steatosis) |
| --- | --- |
| Cc1cccc(Nc2ccncc2S(=O)(=O)NC(=O)NC(C)C)c1 [TORSEMIDE] | 0 |
| CCCN1C[C@H](CSC)C[C@@H]2c3cccc4[nH]cc(c34)C[C@H]21 [PERGOLIDE] | 0 |
| O=C(CCNNC(=O)c1ccncc1)NCc1ccccc1 [NIALAMIDE] | 1 |
| N=C(N)NC(=O)c1nc(Cl)c(N)nc1N [AMILORIDE] | 0 |

Lab note: next molecule to report on.
Fill blank: measured Hepatotoxicity (steatosis) of the molecule "Oc1c(Cl)c(Cl)c(Cl)c(Cl)c1Cl" is ____.
1

---

MEASUREMENT CONTEXT: human
*1 amine or outer side, *2 acyl side, *3 side chain or, on linkers, in order; H or OH if unused. Where a SMILES comes first, the peptide text is derived from it. Bridges are numbered along the chain shown (N, C = ends). [ ]: non-standard residue; d: D form. The star is where a group is joined. X1 = O=C1C[C@@H](C(=O)[*:2])N([*:1])C[C@H]1CS[C@@H]1CN2CCC1CC2; NMePhe(4-NMe2) = CN[C@@H](Cc1ccc(N(C)C)cc1)C(=O)O; Picolinoyl(3-OH) = O=C(c1ncccc1O)*; Phg = N[C@H](C(=O)O)c1ccccc1; dAbu = CC[C@@H](N)C(=O)O
List of Hepatotoxicity (granulomatous hepatitis) values.
Lab note: write the figure by itself, no unit.

Worked examples follow.
| COMPOUND | Hepatotoxicity (granulomatous hepatitis) |
| --- | --- |
| O=C(NCCN1CCC(n2c(=O)[nH]c3cc(Cl)ccc32)CC1)c1ccc(F)cc1 [HALOPEMIDE] | 0 |
| O=C1NCCN1c1ncc([N+](=O)[O-])s1 | 0 |
| CC(C)[C@@H]1NC(=O)[C@H](CCCCN)NC(=O)[C@@H](Cc2c[nH]c3ccccc23)NC(=O)[C@H](Cc2ccc(O)cc2)NC(=O)[C@@H](NC(=O)[C@H](N)Cc2ccc3ccccc3c2)CSSC[C@@H](C(=O)N[C@H](C(N)=O)[C@@H](C)O)NC1=O [LANREOTIDE] | 0 |
| CO/N=C(\C(=O)N[C@@H]1C(=O)N2C(C(=O)O)=C(CSc3nnnn3C)CS[C@H]12)c1csc(N)n1 | 1 |
| CN(C)[C@@H]1C(O)=C(C(N)=O)C(=O)[C@@]2(O)C(O)=C3C(=O)c4c(O)cccc4[C@@](C)(O)[C@H]3C[C@@H]12 | 0 |

Fill blank: measured Hepatotoxicity (granulomatous hepatitis) of the compound "C[C@]12CCC(=O)C=C1CC[C@@H]1[C@@H]2C(=O)C[C@@]2(C)[C@H]1CC[C@]2(O)C(=O)CO" is ____.
0

Fill blank: measured Hepatotoxicity (granulomatous hepatitis) of the compound CCN(CC)CCS(=O)(=O)[C@@H]1CCN2C(=O)c3coc(n3)CC(=O)C[C@H](O)/C=C(C)/C=C/CNC(=O)/C=C/[C@@H](C)[C@@H](C(C)C)OC(=O)[C@@H]12.CC[C@H]1NC(=O)[C@@H](NC(=O)c2ncccc2O)[C@@H](C)OC(=O)[C@H](c2ccccc2)NC(=O)[C@@H]2CC(=O)[C@H](CS[C@@H]3CN4CCC3CC4)CN2C(=O)[C@H](Cc2ccc(N(C)C)cc2)N(C)C(=O)[C@@H]2CCCN2C1=O [QUINUPRISTIN/DALFOPRISTIN] ({Picolinoyl(3-OH)}-T[dAbu]P[NMePhe(4-NMe2)][X1][Phg]; ester 1-C) is ____.
0

Fill blank: measured Hepatotoxicity (granulomatous hepatitis) of the compound "OCCN1CCN(CC/C=C2/c3ccccc3Sc3ccc(Cl)cc32)CC1" is ____.
0

Fill blank: measured Hepatotoxicity (granulomatous hepatitis) of the compound CO/N=C1\CN(c2nc3c(cc2F)c(=O)c(C(=O)O)cn3C2CC2)CC1CN (stereo not given) is ____.
0

Fill blank: measured Hepatotoxicity (granulomatous hepatitis) of the compound "O=C(O)c1cccs1" is ____.
0

Fill blank: measured Hepatotoxicity (granulomatous hepatitis) of the compound "Nc1nnc(-c2cccc(Cl)c2Cl)c(N)n1" is ____.
0

Fill blank: measured Hepatotoxicity (granulomatous hepatitis) of the compound "CNC(=O)[C@@H](NC(=O)[C@H](CC(C)C)[C@H](O)C(=O)NO)C(C)(C)C" is ____.
0

Fill blank: measured Hepatotoxicity (granulomatous hepatitis) of the compound CC(C)(C)c1ccc(C(O)CCCN2CCC(C(O)(c3ccccc3)c3ccccc3)CC2)cc1 (stereo not given) is ____.
0
